Hello, the source for this data is patent US12662479B2, in case you need it.

target: HiBit-BRM fusion protein (Homo sapiens); construct: expressed in transfected cells; experiment: HiBiT-BRM cell-based degradation assay (Nano-Glo HiBiT Lytic Detection, 24 h); details: HeLa cells expressing HiBiT-BRM, read-out: BRM HiBit Degradation IC50
Counter-ions that a name gives are not always drawn.
Please go through the items and note down their DC50.

DC50 lookup needed for Cc1ncsc1-c1ccc(CNC(=O)[C@@H]2C[C@@H](O)CN2C(=O)[C@@H](NC(=O)CCCCCCCNC(=O)CCCOC[C@H](NC(=O)c2ccn(S(C)(=O)=O)c2)C(=O)Nc2nc(-c3ccccc3)cs2)C(C)(C)C)cc1 , thanks.
> 10 µM

Now try CS(=O)(=O)n1ccc(C(=O)NCC(=O)Nc2nc(C3CCCN(C(=O)CCN4CCN(c5ccc6c(c5)C(=O)N(C5CCC(=O)NC5=O)C6=O)CC4)C3)cs2)c1 (stereo not drawn) [Compound 146, formate] .
> 10 µM

Now try Cc1ncsc1-c1ccc(CNC(=O)[C@@H]2C[C@@H](O)CN2C(=O)[C@@H](NC(=O)COCCOCC(=O)NCCOc2cc(-c3cccc(-c4csc(NC(=O)CNC(=O)c5ccn(S(C)(=O)=O)c5)n4)c3)ccn2)C(C)(C)C)cc1 .
> 10 µM

====

molecular target: HiBit-BRG1 fusion protein (Homo sapiens, UniProt P51532); construct: expressed in transfected cells; experiment: HiBiT-BRG1 cell-based degradation assay (Nano-Glo HiBiT Lytic Detection, 24 h); details: HeLa cells expressing HiBit-BRG1 and LgBit, read-out: BRG1 HiBit Degradation IC50
Sequence (P51532 whole entry, the tested form may be a part): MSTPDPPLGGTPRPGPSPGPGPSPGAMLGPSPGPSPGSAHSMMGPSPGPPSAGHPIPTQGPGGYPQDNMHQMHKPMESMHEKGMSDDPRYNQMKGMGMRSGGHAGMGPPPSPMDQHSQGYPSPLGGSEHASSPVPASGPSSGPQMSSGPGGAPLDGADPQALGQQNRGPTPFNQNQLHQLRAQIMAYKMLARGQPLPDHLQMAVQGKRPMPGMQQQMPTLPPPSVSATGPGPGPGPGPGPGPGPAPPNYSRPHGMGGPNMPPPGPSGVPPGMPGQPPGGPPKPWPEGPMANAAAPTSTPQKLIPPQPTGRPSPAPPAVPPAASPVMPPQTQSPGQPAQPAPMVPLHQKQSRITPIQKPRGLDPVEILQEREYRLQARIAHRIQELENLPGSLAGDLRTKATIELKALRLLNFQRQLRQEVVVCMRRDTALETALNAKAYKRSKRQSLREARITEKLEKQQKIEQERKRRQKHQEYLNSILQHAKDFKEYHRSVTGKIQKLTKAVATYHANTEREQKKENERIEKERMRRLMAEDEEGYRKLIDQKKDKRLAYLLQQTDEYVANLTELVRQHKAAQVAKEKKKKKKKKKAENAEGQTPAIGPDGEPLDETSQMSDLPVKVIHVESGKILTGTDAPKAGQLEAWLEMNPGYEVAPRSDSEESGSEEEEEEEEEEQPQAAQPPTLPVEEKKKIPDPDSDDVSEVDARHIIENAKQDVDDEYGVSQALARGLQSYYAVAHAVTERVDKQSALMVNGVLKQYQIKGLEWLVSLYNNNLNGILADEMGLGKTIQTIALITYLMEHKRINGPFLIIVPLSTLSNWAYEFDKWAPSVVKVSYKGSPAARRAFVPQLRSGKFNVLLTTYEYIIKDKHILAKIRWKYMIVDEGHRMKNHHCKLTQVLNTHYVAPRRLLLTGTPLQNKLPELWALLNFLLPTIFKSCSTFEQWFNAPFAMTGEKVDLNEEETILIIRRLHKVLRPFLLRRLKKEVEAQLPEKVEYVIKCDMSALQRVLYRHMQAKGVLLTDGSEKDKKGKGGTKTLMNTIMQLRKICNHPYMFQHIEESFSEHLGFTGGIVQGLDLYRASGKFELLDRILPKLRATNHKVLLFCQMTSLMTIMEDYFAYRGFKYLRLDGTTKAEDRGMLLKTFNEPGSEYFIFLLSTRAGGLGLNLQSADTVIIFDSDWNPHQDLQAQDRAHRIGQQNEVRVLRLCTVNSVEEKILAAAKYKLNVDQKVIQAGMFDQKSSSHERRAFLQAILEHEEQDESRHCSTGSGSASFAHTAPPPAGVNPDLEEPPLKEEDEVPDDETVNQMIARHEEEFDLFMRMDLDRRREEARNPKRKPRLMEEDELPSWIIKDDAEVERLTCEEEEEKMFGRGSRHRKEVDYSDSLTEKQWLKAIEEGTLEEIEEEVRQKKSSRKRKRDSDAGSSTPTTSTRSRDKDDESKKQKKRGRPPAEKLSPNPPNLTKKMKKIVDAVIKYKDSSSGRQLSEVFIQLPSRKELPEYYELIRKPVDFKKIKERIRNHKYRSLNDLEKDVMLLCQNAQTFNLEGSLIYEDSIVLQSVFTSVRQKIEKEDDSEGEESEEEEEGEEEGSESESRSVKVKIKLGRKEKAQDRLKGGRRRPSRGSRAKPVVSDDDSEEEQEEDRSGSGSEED
Metric: DC50

DC50 lookup needed for Cc1ncsc1-c1ccc(CNC(=O)[C@@H]2C[C@@H](O)CN2C(=O)[C@@H](NC(=O)CCCCCCCCCCCCC(=O)NCc2ccc(COC[C@H](NC(=O)c3ccn(S(C)(=O)=O)c3)C(=O)Nc3nc(-c4ccccc4)cs3)cc2)C(C)(C)C)cc1 [Compound 211] , thanks.
> 10000 nM

Now try CS(=O)(=O)n1ccc(C(=O)NCC(=O)Nc2nc(-c3cccc(-c4ccnc(OCCNC(=O)CCOCCOCCNc5cccc6c5C(=O)N(C5CCC(=O)NC5=O)C6=O)c4)c3)cs2)c1 (centres unmarked) [Compound 81] .
100 to 1000 nM

====

molecular target: HiBit-BRM fusion protein (Homo sapiens, UniProt P51531); construct: expressed in transfected cells; experiment: HiBiT-BRM cell-based degradation assay (Nano-Glo HiBiT Lytic Detection, 24 h); conditions: HeLa cells expressing HiBiT-BRM, read-out: BRM HiBit Degradation IC50
Sequence (P51531 whole entry, the tested form may be a part): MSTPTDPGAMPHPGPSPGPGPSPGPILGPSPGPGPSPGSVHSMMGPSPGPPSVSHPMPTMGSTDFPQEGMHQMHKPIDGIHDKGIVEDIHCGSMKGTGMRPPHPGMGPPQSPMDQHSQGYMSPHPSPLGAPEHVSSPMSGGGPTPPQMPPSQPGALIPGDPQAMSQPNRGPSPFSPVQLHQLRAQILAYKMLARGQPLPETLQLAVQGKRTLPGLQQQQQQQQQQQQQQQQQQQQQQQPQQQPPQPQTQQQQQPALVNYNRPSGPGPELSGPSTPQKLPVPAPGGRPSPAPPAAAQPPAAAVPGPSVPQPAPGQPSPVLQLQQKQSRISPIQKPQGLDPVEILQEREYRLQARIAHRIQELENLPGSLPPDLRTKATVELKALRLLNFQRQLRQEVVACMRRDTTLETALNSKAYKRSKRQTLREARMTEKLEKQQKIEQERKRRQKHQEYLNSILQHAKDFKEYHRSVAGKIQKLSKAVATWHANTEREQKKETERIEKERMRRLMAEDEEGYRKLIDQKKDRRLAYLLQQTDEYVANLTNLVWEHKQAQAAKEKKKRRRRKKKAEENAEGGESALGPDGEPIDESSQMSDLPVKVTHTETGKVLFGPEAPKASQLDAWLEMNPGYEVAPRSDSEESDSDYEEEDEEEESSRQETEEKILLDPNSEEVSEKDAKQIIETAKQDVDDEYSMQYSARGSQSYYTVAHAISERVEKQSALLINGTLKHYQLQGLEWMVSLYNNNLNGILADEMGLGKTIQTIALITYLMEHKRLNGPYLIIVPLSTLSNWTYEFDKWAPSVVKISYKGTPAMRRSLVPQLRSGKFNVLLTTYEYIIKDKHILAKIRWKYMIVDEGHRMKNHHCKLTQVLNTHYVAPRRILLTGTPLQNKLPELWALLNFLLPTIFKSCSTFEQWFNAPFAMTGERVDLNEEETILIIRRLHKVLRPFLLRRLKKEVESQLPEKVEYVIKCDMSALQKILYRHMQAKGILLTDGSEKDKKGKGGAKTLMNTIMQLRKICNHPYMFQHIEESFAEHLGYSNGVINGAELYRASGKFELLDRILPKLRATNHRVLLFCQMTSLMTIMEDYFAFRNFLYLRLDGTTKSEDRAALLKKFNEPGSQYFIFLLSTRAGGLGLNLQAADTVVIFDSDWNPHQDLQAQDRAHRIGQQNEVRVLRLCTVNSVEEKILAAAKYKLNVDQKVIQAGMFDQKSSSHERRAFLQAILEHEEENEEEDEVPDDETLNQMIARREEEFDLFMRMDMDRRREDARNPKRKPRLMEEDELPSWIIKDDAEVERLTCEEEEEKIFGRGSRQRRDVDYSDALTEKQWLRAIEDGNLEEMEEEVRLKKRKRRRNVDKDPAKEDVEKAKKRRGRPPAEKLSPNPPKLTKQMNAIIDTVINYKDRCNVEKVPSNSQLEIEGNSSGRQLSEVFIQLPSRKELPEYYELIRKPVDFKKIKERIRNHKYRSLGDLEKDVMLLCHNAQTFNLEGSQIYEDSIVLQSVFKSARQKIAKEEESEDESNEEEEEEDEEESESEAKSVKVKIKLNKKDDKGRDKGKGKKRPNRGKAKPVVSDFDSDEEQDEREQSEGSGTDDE
Metric: DC50

DC50 lookup needed for CS(=O)(=O)n1ccc(C(=O)N[C@@H](CCOCCCC(=O)N2CCN(CCCOc3ccc4c(c3)C(=O)N(C3CCC(=O)NC3=O)C4=O)CC2)C(=O)Nc2nc(-c3ccccc3)cs2)c1 (some centres unmarked) [Compound 255] , thanks.
> 10 µM

Now try Cc1ncsc1-c1ccc(CNC(=O)[C@@H]2C[C@@H](O)CN2C(=O)[C@@H](NC(=O)COCCOCCNC(=O)CN(C)c2cc(-c3cccc(-c4csc(NC(=O)CNC(=O)c5ccn(S(C)(=O)=O)c5)n4)c3)ccn2)C(C)(C)C)cc1 [Compound 94] .
> 10 µM

====

Please go through the items and note down their DC50.
biological target: HiBit-BRM fusion protein (Homo sapiens, UniProt P51531); construct: expressed in transfected cells; experiment: HiBiT-BRM cell-based degradation assay (Nano-Glo HiBiT Lytic Detection, 24 h); details: HeLa cells expressing HiBiT-BRM, read-out: BRM HiBit Degradation IC50

DC50 lookup needed for CS(=O)(=O)n1ccc(C(=O)N[C@@H](CCOCCCC(=O)NCCOc2cccc(OCCNc3ccc4c(c3)C(=O)N(C3CCC(=O)NC3=O)C4=O)c2)C(=O)Nc2nc(-c3ccccc3)cs2)c1 (stereo partly drawn) , thanks.
> 10000 nM

Now try Cc1ncsc1-c1ccc(CNC(=O)[C@@H]2C[C@@H](O)CN2C(=O)[C@@H](NC(=O)CCCCCCCC(=O)NCc2cccc(-c3cccc(-c4csc(NC(=O)CNC(=O)c5ccn(S(C)(=O)=O)c5)n4)c3)c2)C(C)(C)C)cc1 .
< 100 nM

Now try Cc1ncsc1-c1ccc(CNC(=O)[C@@H]2C[C@@H](O)CN2C(=O)[C@@H](NC(=O)CCCCCCCCCCCCCC(=O)NCc2cccc(-c3cccc(-c4csc(NC(=O)CNC(=O)c5ccn(S(C)(=O)=O)c5)n4)c3)c2)C(C)(C)C)cc1 .
100 to 1000 nM

Now try CN(CC(=O)NCCOCCOCCNc1cccc2c1C(=O)N(C1CCC(=O)NC1=O)C2=O)c1cc(-c2cccc(-c3csc(NC(=O)CNC(=O)c4ccn(S(C)(=O)=O)c4)n3)c2)ccn1 (stereo not drawn) .
> 10000 nM

Now try CN(CC(=O)NCCCCS(=O)(=O)CCCNc1cccc2c1C(=O)N(C1CCC(=O)NC1=O)C2=O)c1cc(-c2cccc(-c3csc(NC(=O)CNC(=O)c4ccn(S(C)(=O)=O)c4)n3)c2)ccn1 (stereo not drawn) .
> 10000 nM

Now try CS(=O)(=O)n1ccc(C(=O)N[C@@H](COCc2ccc(CNC(=O)CCOCCOCCNc3cccc4c3C(=O)N(C3CCC(=O)NC3=O)C4=O)cc2)C(=O)Nc2nc(-c3ccccc3)cs2)c1 (stereo partly drawn) .
100 to 1000 nM

Now try Cc1ncsc1-c1ccc(CNC(=O)[C@@H]2C[C@@H](O)CN2C(=O)[C@@H](NC(=O)CCCCCCCCCCCCCCCC(=O)NCc2cccc(-c3cccc(-c4csc(NC(=O)CNC(=O)c5ccn(S(C)(=O)=O)c5)n4)c3)c2)C(C)(C)C)cc1 .
> 10000 nM

Now try CS(=O)(=O)n1ccc(C(=O)NCC(=O)Nc2nc(-c3cccc(-c4ccnc(N5CCN(C(=O)CCOCCOCCOc6cccc7c6C(=O)N(C6CCC(=O)NC6=O)C7=O)CC5)c4)c3)cs2)c1 (stereo not drawn) .
100 to 1000 nM

Now try CS(=O)(=O)n1ccc(C(=O)N[C@@H](COCc2ccc(CNC(=O)CCN3CC4(C3)CN(c3ccc5c(c3)C(=O)N(C3CCC(=O)NC3=O)C5=O)C4)cc2)C(=O)Nc2nc(-c3ccccc3)cs2)c1 (stereo partly drawn) .
100 to 1000 nM

Now try CS(=O)(=O)n1ccc(C(=O)NCC(=O)Nc2nc(-c3cccc(-c4ccnc(C5(C(=O)N6CCN(c7ccc8c(c7)C(=O)N(C7CCC(=O)NC7=O)C8=O)CC6)CC5)c4)c3)cs2)c1 (stereo not drawn) .
> 10000 nM

Now try CS(=O)(=O)n1ccc(C(=O)NCC(=O)Nc2nc(-c3cccc(-c4ccnc(C5(C(=O)N6CCC(C7CCN(C(=O)COc8cccc9c8C(=O)N(C8CCC(=O)NC8=O)C9=O)CC7)CC6)CC5)c4)c3)cs2)c1 (stereo not drawn) .
> 10000 nM

Now try CS(=O)(=O)n1ccc(C(=O)NCC(=O)Nc2nc(-c3cccc(-c4ccnc(OCCNC(=O)CCCCCCCCCCNc5cccc6c5C(=O)N(C5CCC(=O)NC5=O)C6=O)c4)c3)cs2)c1 (stereo not drawn) .
> 10000 nM

Now try Cc1ncsc1-c1ccc(CNC(=O)[C@@H]2C[C@@H](O)CN2C(=O)[C@@H](NC(=O)C2CC3(CC(C(=O)NCc4cccc(-c5cccc(-c6csc(NC(=O)CNC(=O)c7ccn(S(C)(=O)=O)c7)n6)c5)c4)C3)C2)C(C)(C)C)cc1 (stereo partly drawn) .
> 10000 nM

Now try CS(=O)(=O)n1ccc(C(=O)N[C@@H](COCc2ccc(CNC(=O)CCCCCCCOc3cccc4c3C(=O)N(C3CCC(=O)NC3=O)C4=O)cc2)C(=O)Nc2nc(-c3ccccc3)cs2)c1 (stereo partly drawn) .
100 to 1000 nM

Now try CS(=O)(=O)n1ccc(C(=O)NCC(=O)Nc2nc(-c3cccc(-c4ccnc(C5(C(=O)NCCNc6cccc7c6CN(C6CCC(=O)NC6=O)C7=O)CC5)c4)c3)cs2)c1 (stereo not drawn) .
> 10000 nM

Now try CN(CC(=O)NCCOCCOCCNc1ccc2c(c1)C(=O)N(C1CCC(=O)NC1=O)C2=O)c1cc(-c2cccc(-c3csc(NC(=O)CNC(=O)c4ccn(S(C)(=O)=O)c4)n3)c2)ccn1 (stereo not drawn) .
> 10000 nM

Now try CS(=O)(=O)n1ccc(C(=O)N[C@@H](COCc2ccc(C(=O)N3CC(Oc4ccc5c(c4)C(=O)N(C4CCC(=O)NC4=O)C5=O)C3)cc2)C(=O)Nc2nc(-c3ccccc3)cs2)c1 (stereo partly drawn) .
> 10000 nM

Now try CS(=O)(=O)n1ccc(C(=O)NCC(=O)Nc2nc(-c3cccc(-c4ccnc(C5(C(=O)NCCCCCCNc6ccc7c(c6)C(=O)N(C6CCC(=O)NC6=O)C7=O)CC5)c4)c3)cs2)c1 (stereo not drawn) .
< 100 nM
